System: BT-549 breast
Assay: NCI-60 one-dose screen, 48 h (100 = growth as untreated, 0 = no growth, -100 = all killed)
Settings: 10 µM unless noted
Compounds without any hit were thinned out: in the full panel of roughly 83,000, 20% have a hit.
growth vs 50%: at or above is met, below is not met.

Solved cases below.
Input line: // inclusive: growth at least 50%? input: `COc1ccc2nc(C)cc(Nc3ccccc3O)c2c1`
Output line: not met

Input line: Same lookup for COc1ccc(C(=O)C(CN(C)C)c2ccccc2)cc1 (stereo not given) , please.
Output line: not met

Input line: Same lookup for `Oc1[nH]c2ccc(Cl)cc2c1/C=c1/ccc2c(c1)N=C(c1ccc(F)cc1)N=2` , please.
Output line: not met

Input line: Same lookup for `CC(C)=CCC[C@H](C)c1ccc(C)c2c1OCN(CCO)C2` , please.
Output line: met

Input line: Same lookup for `COc1ccc(NC(=O)/C=C/c2ccc(Cl)c(Cl)c2)cn1` , please.
Output line: met

New cases:
Input line: // inclusive: growth at least 50%? input: NS(=O)(=O)c1ccc(N2N=C(c3cccs3)CC2c2ccccc2O)cc1 (stereo not given)
Output line: not met

Input line: Same lookup for `COc1ccc(-c2nn(-c3cccc(Cl)c3)cc2/C=C2\C(=N)N(c3ccccc3)N=C2N)cc1` , please.
Output line: met

----------
Tested on: NCI/ADR-RES ovarian
Assay: NCI-60 one-dose screen, 48 h (100 = growth as untreated, 0 = no growth, -100 = all killed)
Conditions: 10 µM unless noted
About 83,000 compounds went through this panel and 20% of them were active in at least one assay; those are over-represented in the sample as a whole.
Returns the class for an entry based on its growth. Class ranges: low value = under 40%, medium value = from 40% up to 90%, high value = 90% and over

Solved cases below.
Input line: Form: Item = CC(=O)OC1Oc2cc(C)c(C)cc2-c2oc(=O)c(-c3ccc(F)cc3)cc21 (configuration not stated) ; Class = ?
Output line: low value

Input line: Same lookup for O=C1OCC2=C1C(c1ccc(Cl)c(Cl)c1)c1cc3c(cc1N2CCO)CCC3 (configuration not stated) , please.
Output line: low value

Input line: Same lookup for `N#Cc1c(N)c(C(=O)c2ccc3c(c2)OCCO3)n2c1CCCC2` , please.
Output line: low value

Input line: Same lookup for `CCOC(=O)C(Nc1ccccc1)C(=O)OCC` , please.
Output line: high value

New cases:
Input line: Form: Item = `O=c1c2sc3ccccc3c2nnn1-c1ccc(F)c(Cl)c1` ; Class = ?
Output line: medium value

Input line: Same lookup for COc1cc(C2=NOC(c3cc(OC)c(OC)c(OC)c3)C2)ccc1OCCCCOc1cc2c(cc1OC)C(=O)N1CCC[C@H]1C=N2 (some centres not stated) , please.
Output line: low value

Input line: Same lookup for `CCCCCCCCCCCCCCC(C(=O)OCC)C(=O)OCC` , please.
Output line: high value

Input line: Same lookup for `CC[C@H](Nc1nc(N)nc(C2CC2)c1C#N)c1nc2cccc(NCc3ccc(C(=O)NO)cc3)c2c(=O)n1-c1ccccc1` , please.
Output line: medium value

Input line: Same lookup for COc1ccc(C2C3=C(COC3=O)N(CCO)c3cc(OC)c(OC)cc32)cc1 (configuration not stated) , please.
Output line: high value

Input line: Same lookup for `COC(=O)c1cc(Cl)cc([N+](=O)[O-])c1O` , please.
Output line: high value

Input line: Same lookup for `O=c1[nH]c2cc(Cl)c(Cl)cc2o1` , please.
Output line: high value

Input line: Same lookup for CCN(CC)CCCC(C)Nc1cnc(C(=O)Nc2ccc(Cl)c3cccnc23)cn1 (configuration not stated) , please.
Output line: medium value

----------
Tested on: MDA-MB-231 breast
Assay: NCI-60 one-dose screen, 48 h (100 = growth as untreated, 0 = no growth, -100 = all killed)
Conditions: 10 µM unless noted
This is part of a sample that, as a whole, favours compounds with a hit. Of some 83,000 tested, about 20% had one in any assay.
Below, each entry is listed with its recorded growth.
Enter your answer as a number in %; do not include the unit.

Some compounds with known growth results, for comparison:
Input line: Given the compound `COc1cccc2nc(Nc3cccc(NC(=O)c4cc(N5CCOCC5)cc(C(F)(F)F)c4)c3)ccc12` , what is its reported growth?
Output line: 93.3

Input line: Same lookup for `CN(C)c1ccc(C(c2ccccc2)c2ccc(N(C)C)cc2)cc1` , please.
Output line: 98.5

Input line: Same lookup for `CCn1c(CN2CCN(Cc3ccccc3)CC2)nc2cc(NC(=O)c3cccs3)ccc21` , please.
Output line: -90.6

Input line: Same lookup for `C#CC[C@@H]1C[C@]2(C)[C@H]3CC=C4[C@H]5[C@@H](C)[C@H](C)CC[C@]5(C(=O)NCCCN5CCN(CCCN)CC5)CC[C@@]4(C)[C@]3(C)CC[C@H]2C(C)(C)[C@H]1OC(C)=O` , please.
Output line: -70.4

Input line: Same lookup for CCCC(CCC)NCC(O)c1cc(-c2ccc(C(F)(F)F)cc2)nc(C(F)(F)F)c1 (stereo not given) , please.
Output line: -66.9

New cases:
Input line: Given the compound `COc1ccc2cc(-c3nc(C)c(C(C)=O)c(-c4ccc(C)cc4)n3)ccc2c1` , what is its reported growth?
Output line: 81

Input line: Same lookup for Nc1n[nH]c2ccc([C@@H]3Nc4c(F)cc5[nH]ncc5c4[C@H]4C5CCC(C5)[C@@H]34)cc12 (stereo not given in full) , please.
Output line: 4.87

Input line: Same lookup for O=C(O)C1[S][Sb]([CH](C(=O)O)[CH](C(=O)O)[Sb]2[S]C(C(=O)O)C(C(=O)O)[S]2)[S]C1C(=O)O (stereo not given) , please.
Output line: 88.2

----------
System: M14 melanoma
Assay: NCI-60 one-dose screen, 48 h
Conditions: 10 µM unless noted
This is part of a sample that, as a whole, favours compounds with a hit. Of some 83,000 tested, about 20% had one in any assay. Activity calls are given as the source filed them. How the source made its calls: active means growth percent below 10; inactive means the rest.
Output constraint: value belongs to active, inactive

Solved cases below.
Input line: Name the outcome recorded for `C/C(CC(=O)NNc1ccc([N+](=O)[O-])cc1)=N\Nc1ccc([N+](=O)[O-])cc1` in the assay.
Output line: inactive

Input line: Same lookup for `O=C(NO)c1ccc(NCc2csc3ccccc23)cc1` , please.
Output line: inactive

Input line: Same lookup for `Cc1ccc(NC(=O)c2nc(S(C)(=O)=O)oc2-c2ccc(F)cc2)cc1Nc1ccc2ncn(C)c(=O)c2c1` , please.
Output line: inactive

Input line: Same lookup for `NC(=S)N/N=C(/c1cccs1)C1CC1` , please.
Output line: inactive

Input line: Same lookup for `CN1CCN(Cc2ccc(NC(=O)c3cncc(C#Cc4ncc5ccccn45)c3)cc2C(F)(F)F)CC1` , please.
Output line: active

New cases:
Input line: Name the outcome recorded for `c1ccc(-c2[nH]c3ccccc3c2-c2ccccc2)cc1` in the assay.
Output line: inactive

Input line: Same lookup for `O=C(O)c1cn(-c2ccccc2)nc1-c1ccc(O)cc1` , please.
Output line: inactive

Input line: Same lookup for `CNC(=O)c1cc(Oc2ccc(NC(=O)c3nc(S(C)(=O)=O)n(C)c3-c3ccc(F)cc3)cc2)ccn1` , please.
Output line: inactive

Input line: Same lookup for `C[C@]12CCc3nc(Nc4ccc(O)cc4)sc3C1=CC[C@@H]1[C@@H]2CC[C@]2(C)/C(=N/NC(N)=S)CC[C@@H]12` , please.
Output line: active

Input line: Same lookup for `O=C(Nc1cccc(Cl)c1)Nc1cc(C(F)(F)F)ccc1Cl` , please.
Output line: inactive

----------
Test system: HT29 colon
Experiment: NCI-60 one-dose screen, 48 h (100 = growth as untreated, 0 = no growth, -100 = all killed)
Details: 10 µM unless noted
Procedure: Growth inhibition of the HT29 human tumor cell line is measured as a screen for anti-cancer activity. Cells are grown in 96 well plates and exposed to the test compound for 48 hours. Compounds are tested at a single concentration, which is 10^-5 M for most compounds. The reported endpoint is percent growth (GI% or GIPRCNT), where numbers from 0 - 100% represent growth inhibition, and numbers from -100% - 0 represent cell death. For example, a value of 40 represents 60% growth inhibition. […]
Compounds without any hit were thinned out: in the full panel of roughly 83,000, 20% have a hit.
Below, each entry is listed with its recorded growth.
Enter your answer as a number in %; do not include the unit.

Some compounds with known growth results, for comparison:
Input line: Given the compound `NC(=O)Nc1ccc2ncnc(Nc3cccc(O)c3)c2c1` , what is its reported growth?
Output line: 106

Input line: Same lookup for `NNC(=O)Cc1ccccc1` , please.
Output line: 101

Input line: Same lookup for COc1cc(C2CC(c3ccc(Cl)cc3)=NN2C=O)ccc1OS(=O)(=O)c1ccc(C)cc1 (stereo unspecified) , please.
Output line: 99.3

Input line: Same lookup for `Nc1c(C(=O)Nc2cccc(Cl)c2)sc2ncc(Br)cc12` , please.
Output line: 66.4

Input line: Same lookup for `C=CCn1c(SCC(=O)Nc2ccc(/C(C)=N\O)cc2)nnc1-c1cc(-c2ccc(Cl)cc2)nc2ccccc12` , please.
Output line: 24.7

New cases:
Input line: Given the compound `C=CCOc1c(Br)cc(Br)cc1Br` , what is its reported growth?
Output line: 104

Input line: Same lookup for `CC(=O)Nc1ccc(Cl)cc1Cl` , please.
Output line: 103
